System: IRE-1α-mediated XBP-1 splicing in human myeloma MM.1s cells
RUN DESCRIPTION: Cellular EC50: endogenous XBP-1 splicing in myeloma cells by RT-PCR (DTT stress)
Assay type: cell-based
SETTINGS: MM1.S, read-out: EC50_av
QUANTITY KIND: EC50

Incoming: State the recorded EC50 for this entry: COc1cc2c3c(c(=O)oc2c(C=O)c1O)CCC3
Outgoing: < 10 µM

Incoming: Then this compound: COCCOc1cc(O)c(C=O)c2oc(=O)c(CCC(=O)N3CCN(C)CC3)c(C)c12
Outgoing: < 10 µM

Incoming: One more compound: COc1cc(O)c(C=O)c2oc(=O)cc(C)c12
Outgoing: < 10 µM

Incoming: How about COCCNC(=O)c1ccc(-c2c(C)c3cc(Cl)c(O)c(C=O)c3oc2=O)cc1 ?
Outgoing: > 10 µM

Incoming: How about this compound: COc1cc2c(C)c(CCC(=O)N3CCN(C)CC3)c(=O)oc2c(C=O)c1O
Outgoing: < 10 µM

Incoming: How about this compound: COc1cc2c(C)c(C(C)C)c(=O)oc2c(C=O)c1O
Outgoing: > 10 µM

Incoming: Query COCCOc1cc2c(C)c(CCC(=O)NCCN(C)C)c(=O)oc2c(C=O)c1O next
Outgoing: > 10 µM

Incoming: Note, next up: CCNC(=O)CCc1c(C)c2c(OCCOC)cc(O)c(C=O)c2oc1=O
Outgoing: < 10 µM

Incoming: Cc1c(CC(=O)N2CCN(C)CC2)c(=O)oc2c(C=O)c(O)ccc12 , same question.
Outgoing: < 10 µM

Incoming: Repeat for the following compound: COCCOc1cc(O)c(C=O)c2oc(=O)cc(C)c12
Outgoing: < 10 µM

Incoming: Try the compound COCCNC(=O)CCc1c(C)c2cc(OC)c(O)c(C=O)c2oc1=O
Outgoing: < 10 µM

Incoming: Please answer likewise for CCc1cc2c(C)c(-c3ccc(C(=O)N4CCOCC4)cc3)c(=O)oc2c(C=O)c1O
Outgoing: > 10 µM

Incoming: Check CCOC(=O)Cc1c(C)c2cc(OC)c(O)c(C=O)c2oc1=O too.
Outgoing: < 10 µM

meta.source: patent US9040714B2
